For each record, write down the corresponding TGI.
Tested on: MDA-MB-468 breast
TEST METHOD NOTES: NCI tumour cell line growth inhibition, 48 h

CCCCCCCCCCCCSC(=NC)NC 3.14 µM
COc1cnc2c(c1)C(=O)c1c-2n(CCCNCCO)c(=O)c2cc(F)ccc12 0.351 µM
COc1ccc(Cn2cc3c(c2-c2ccc(O)cc2)CCc2cnoc2-3)cc1 1.25 µM
O=C1CSC(=S)N1Cc1cccnc1 17 µM
O=C(Nc1cccnc1)c1cccc([N+](=O)[O-])c1 > 100 µM

Please look at the items below and tell me TGI for each one, in order.
1. Cn1ccnc1C(=O)/C=C/c1ccc(C(=O)Nc2ccccc2O)cc1
2. CC(C)=CCc1ccc(O)c(=O)cc1C(C)C
3. COc1ccc(Cn2cnc3cc(C(=O)Nc4cccc5ccccc45)ccc32)c(OC)c1

Result:
1. 3.67 µM
2. 5.36 µM
3. 2.42 µM
